Entry source: ChEMBL document CHEMBL2417537

Tested on: Candida albicans
Experiment: Antifungal activity against Candida albicans ATCC 10231 after 24 hrs
Type: functional
Conditions: ATCC 10231, 24 h
RESULT TYPE: MIC90

# MIC90 of CC(C)=CCCc1ccc2c(c1)C(=O)C=CC2=O = > 32 µg/mL

# MIC90 of Cc1c2c(nc3ccccc13)C(=O)c1cc(CCCC(C)C)ccc1C2=O = > 32 µg/mL

# MIC90 of CC(=O)NC1=C(Cl)C(=O)c2cc3c(cc2C1=O)CCCC3(C)C = 4 µg/mL

# MIC90 of CC(C)=CCCc1ccc2c(c1)C(=O)C(Cl)=C(NCc1ccccc1)C2=O = > 32 µg/mL

# MIC90 of CC1(C)CCCc2cc3c(cc21)C(=O)C=C(Cl)C3=O = 20.2 µg/mL

# MIC90 of CC(C)=CCCc1ccc2c(c1)C(=O)C(Cl)=CC2=O = > 32 µg/mL

# MIC90 of CCOC1=C(OCC)C(=O)c2cc3c(cc2C1=O)CCCC3(C)C = > 32 µg/mL

###

Experiment: Selectivity index, ratio of IC50 for african green monkey Vero cells to IC50 for Trichophyton mentagrophytes ATCC 24198
Assay type: toxicity, cell-based
Conditions: read-out: Ratio IC50
RESULT TYPE: selectivity ratio
Form rule: numeric answer, no unit written next to it.

Study these solved cases before continuing.
smiles_representation=COc1ccc(NC2=C(Cl)C(=O)c3cc(CCCC(C)C)ccc3C2=O)cc1 result_type="selectivity ratio" reading=7.1
smiles_representation=CC1(C)CCCc2cc3c(cc21)C(=O)C=CC3=O result_type="selectivity ratio" reading=6.6

// below: selectivity ratio requested for another compound
# selectivity ratio of CC(=O)NC1=C(Cl)C(=O)c2cc3c(cc2C1=O)CCCC3(C)C = 7.1

###

Assay: Selectivity index, ratio of IC50 for african green monkey Vero cells to IC50 for Trichophyton rubrum ATCC 28188
Assay type: toxicity, cell-based
Conditions: read-out: Ratio IC50
Reported selectivity ratio by item:
Form rule: numeric answer, no unit written next to it.

# selectivity ratio of CCNC1=CC(=O)c2cc3c(cc2C1=O)C(C)(C)CCC3 = 11.1

# selectivity ratio of CC(C)=CCCc1ccc2c(c1)C(=O)C(Cl)=CC2=O = 6.5

# selectivity ratio of CN(C/C=C/C#CC(C)(C)C)Cc1cccc2ccccc12 [TERBINAFINE] = 386

###

Experiment: Selectivity index, ratio of IC50 for african green monkey Vero cells to IC50 for Candida lusitaniae ATCC 200951
Format: toxicity, cell-based
Conditions: read-out: Ratio IC50
RESULT TYPE: selectivity ratio
Form rule: numeric answer, no unit written next to it.

smiles_representation=CC(=O)NC1=C(Cl)C(=O)c2cc3c(cc2C1=O)CCCC3(C)C reading=10.1

// below: selectivity ratio requested for another molecule
# selectivity ratio of COc1ccc(NC2=C(Cl)C(=O)c3cc(CCCC(C)C)ccc3C2=O)cc1 = 2.2

###

Experiment: Selectivity index, ratio of IC50 for african green monkey Vero cells to IC50 for Aspergillus flavus ATCC 204304
Format: toxicity, cell-based
Details: read-out: Ratio IC50
RESULT TYPE: selectivity ratio
Form rule: numeric answer, no unit written next to it.

# selectivity ratio of C[C@@H]1[C@H](O)[C@@H](C)/C=C/C=C/C=C/C=C/C=C/C=C/C=C/[C@H](O[C@@H]2O[C@H](C)[C@@H](O)[C@H](N)[C@@H]2O)C[C@@H]2O[C@](O)(C[C@@H](O)C[C@@H](O)[C@H](O)CC[C@@H](O)C[C@@H](O)CC(=O)O[C@H]1C)C[C@H](O)[C@H]2C(=O)O = 7.1
